Ki reference
- assay-system: FKBP12 (Homo sapiens)
- assay-details: rotamase inhibition assay (N-succinyl-Ala-Ala-Pro-Phe-p-nitroanilide, chymotrypsin-coupled)
- Format: biochemical
- run-conditions: apparent Ki; NI = no inhibition at the concentrations tested; read-out: Rotamase Ki(app)

{"columns": ["compound", "assay-system", "recorded-result"],
 "data": [
  ["CCC(C)(C)C(=O)C(=O)N1C2CCCC1C(=O)N(C[C@@H](CO)OCc1ccccc1)C2 (some centres unmarked)", "FKBP12 (Homo sapiens)", "3.8 µM"],
  ["C=CCC(CC=C)C(=O)OC[C@H](CN1CC2CCCC(C1=O)N2C(=O)C(=O)c1cc(OC)c(OC)c(OC)c1)OCc1ccccc1 (some centres unmarked)", "FKBP12 (Homo sapiens)", "0.063 µM"],
  ["C=CCC(CC=C)C(=O)OC[C@@H](CN1CC2CCCC(C1=O)N2C(=O)C(=O)C1(COC(=O)COC)CCCC1)OCc1ccccc1 (some centres unmarked)", "FKBP12 (Homo sapiens)", "0.061 µM"],
  ["COCC(=O)OC1(C(=O)C(=O)N2C3CCCC2C2=CN(C4CCCC4)C(=O)CN2C3=O)CCCC1 (centres unmarked)", "FKBP12 (Homo sapiens)", "1.7 µM"]
]}

Task item: Param item = COCOC1(C(=O)C(=O)N2C3CCC[C@@H]2[C@@H]2Cc4cc(OC(F)(F)F)ccc4CN2C3=O)CCCC1 ; retrieve measured Ki.
Reply: 4 µM

Task item: What do you get for COCOC1(C(=O)C(=O)N2C3CCCC2C(=O)N(CCCCc2ccccc2)C3)CCCC1 (centres unmarked) ?
Reply: 1 µM

Task item: Thanks! And C=CCC(CC=C)C(=O)OC[C@H](CN1CC2CCCC(C1=O)N2C(=O)C(=O)C(C)(C)CC)OCc1ccccc1 (some centres unmarked) ?
Reply: 0.89 µM

Task item: Also CCC(C)(C)C(=O)C(=O)N1C2CCCC1[C@@H]1OCCN1C2=O (some centres unmarked) ?
Reply: 9 µM

---

pKi by entry:
- assay-system: FKBP12 (Homo sapiens, UniProt P62942)
- Sequence (P62942 whole entry, species assumed): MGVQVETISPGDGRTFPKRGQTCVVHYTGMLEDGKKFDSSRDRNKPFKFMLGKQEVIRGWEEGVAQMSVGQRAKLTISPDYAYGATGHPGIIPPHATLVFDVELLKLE
- assay-details: rotamase inhibition assay (N-succinyl-Ala-Ala-Pro-Phe-p-nitroanilide, chymotrypsin-coupled)
- Assay type: biochemical
- run-conditions: apparent Ki; NI = no inhibition at the concentrations tested; read-out: Rotamase Ki(app)
Just so you know, pKi here is -log10 of the concentration in molar units; reply with that number alone.

Worked examples follow.
{"columns": ["molecule", "pKi"],
 "data": [
  ["CC(C)C(=O)OC1(C(=O)C(=O)N2C3CCCC2C2=CN(C4CCCC4)C(=O)CN2C3=O)CCCC1 (stereo not shown) [Compound 150]", 5.82],
  ["COc1cc(C(=O)C(=O)N2C3CCCC2C(=O)N(C[C@H](CO)OCc2ccccc2)C3)cc(OC)c1OC (stereo partly shown) [Compound 45]", 6.24],
  ["COc1cc(C(=O)C(=O)N2C3CCCC2C(=O)N(Cc2ccc4ccccc4c2)C3)cc(OC)c1OC (stereo not shown) [Compound 139]", 6.45],
  ["CCC(=O)OC1(C(=O)C(=O)N2C3CCCC2C2=CN(C4CCCC4)C(=O)CN2C3=O)CCCC1 (stereo not shown) [Compound 144]", 5.92],
  ["CC(=O)OCC1(C(=O)C(=O)N2C3CCCC2C(=O)N(CCCCc2ccccc2)C3)CCCC1 (stereo not shown) [Compound 62]", 6.80]
]}

Task item: For the molecule shown here, O=C1C2CCCC(CN1CCOCc1ccccc1)N2C(=O)C(=O)C12CC3CC(CC(C3)C1)C2 (stereo not shown) [Compound 40] , give the reported pKi.
Reply: 6.16

Task item: Repeat for the following molecule: C=CCC(CC=C)C(=O)OC[C@@H](CN1CC2CCCC(C1=O)N2C(=O)C(=O)c1cc(OC)c(OC)c(OC)c1)OCc1ccccc1 (stereo partly shown) [Compound 76]
Reply: 6.95

---

- assay-system: FKBP12 (Homo sapiens, UniProt P62942)
- assay-details: rotamase inhibition assay (N-succinyl-Ala-Ala-Pro-Phe-p-nitroanilide, chymotrypsin-coupled)
- Format: biochemical
- run-conditions: Rotamase Ki(app)
quantity: Ki (nM)
Report the value in nM with no unit label.

Task item: Given the entry COc1cc(OC)cc(N2C=C3C4CCCC(C(=O)N3CC2=O)N4C(=O)C(=O)c2cc(OC)c(OC)c(OC)c2)c1 (stereo not shown) , report its measured Ki.
Reply: 54

---

- assay-system: FKBP12 (Homo sapiens)
- assay-details: rotamase inhibition assay (N-succinyl-Ala-Ala-Pro-Phe-p-nitroanilide, chymotrypsin-coupled)
- Format: biochemical
- run-conditions: apparent Ki; NI = no inhibition at the concentrations tested; read-out: Rotamase Ki(app)
quantity: Ki (nM)
Report the value in nM with no unit label.

Previously resolved entries follow.
{"columns": ["molecule", "recorded-result"],
 "data": [
  ["COc1cc(OC)cc(N2C=C3C4CCCC(C(=O)N3CC2=O)N4C(=O)C(=O)C2(c3ccccc3)CCCC2)c1 (centres unmarked) [Compound 156]", 1500],
  ["COc1cc(C(=O)C(=O)N2C3CCCC2C(=O)N(CCc2ccccc2)CC3)cc(OC)c1OC (centres unmarked) [Compound 159]", 760],
  ["COCC(=O)OC1(C(=O)C(=O)N2C3CCCC2C(=O)N(CCCCc2ccccc2)C3)CCCC1 (centres unmarked) [Compound 101]", 1400],
  ["O=C1C2CCCC(CN1CCCCc1ccccc1)N2C(=O)C(=O)C1(O)CCCC1 (centres unmarked) [Compound 95]", 1200],
  ["COc1cc(C(=O)C(=O)N2C3CCCC2C(=O)N(CCCCc2ccccc2)C3)cc(OC)c1OC (centres unmarked) [Compound 33]", 227],
  ["CC(C)[C@@H]1CC[C@@H](C)[C@](C)(C(=O)C(=O)N2C3CCCC2C(=O)N(CCOCc2ccccc2)C3)C1 (some centres unmarked) [Compound 54]", 6000],
  ["COc1cc(C(=O)C(=O)N2C3C=CN(CCCCc4ccccc4)C(=O)C2CCC3)cc(OC)c1OC (centres unmarked) [Compound 162]", 347],
  ["CCC(C)(C)C(=O)C(=O)N1C2CCCC1C(=O)N(C1CCCC1)C2 (centres unmarked) [Compound 69]", 33000]
]}

Task item: Would you mind telling me what Ki value was observed for CO[C@@H](C)[C@@H]1CC[C@@H](C)[C@](O)(C(=O)C(=O)N2C3CCCC2C(=O)N(CCCCc2ccccc2)C3)C1 (some centres unmarked) [Compound 99] ?
Reply: 3700

Task item: Likewise for CCC(CC)(COC(=O)COC)C(=O)C(=O)N1C2CCCC1C(=O)N(CCCCc1ccccc1)C2 (centres unmarked) [Compound 81] ?
Reply: 1100

Task item: Entry COc1cc(C(=O)C(=O)N2C3CCCC2C(=O)N(C[C@@H](CO)OCc2ccccc2)C3)cc(OC)c1OC (some centres unmarked) [Compound 50] please
Reply: 560

Task item: Subsequent entry: COc1cc(OC)cc(N2C=C3C4CCCC(C(=O)N3CC2=O)N4C(=O)C(=O)C2(COC(C)=O)CCCC2)c1 (centres unmarked) [Compound 143]
Reply: 190

Task item: What about this molecule? CC(=O)OCC(C)(C)C(=O)C(=O)N1C2CCCC1C(=O)N(CCCCc1ccccc1)C2 (centres unmarked) [Compound 60]
Reply: 3000

Task item: Try this molecule next: COCC(=O)OCC1(C(=O)C(=O)N2C3CCCC2C(=O)N(CCCCc2ccccc2)C3)CCCC1 (centres unmarked) [Compound 84]
Reply: 134

Task item: Please give the result for CCC(C)(C)C(=O)C(=O)N1C2CCCC1C(=O)N(C[C@H](CO)OCc1ccccc1)C2 (some centres unmarked) [Compound 58] too.
Reply: 3000

Task item: Could you do the same for CCC(C)(C)C(=O)C(=O)N1C2CCCC1C(=O)N([C@H]1CCC[C@@H]1OCc1ccccc1)C2 (some centres unmarked) [Compound 77] , please?
Reply: 20500

---

- assay-system: FKBP12 (Homo sapiens)
- assay-details: rotamase inhibition assay (N-succinyl-Ala-Ala-Pro-Phe-p-nitroanilide, chymotrypsin-coupled)
- Assay type: biochemical
- run-conditions: apparent Ki; NI = no inhibition at the concentrations tested; read-out: Rotamase Ki(app)
pKi: −log10 of the molar value.
Threshold rule: pKi greater than or equal to 6 is label 1; below that, label 0.

Task item: Quick check, pKi >= 6? COCOCC1(C(=O)C(=O)N2C3CCCC2C(=O)N(CCCCc2ccccc2)C3)CCCC1 (centres unmarked)
Reply: label 1

Task item: Another: COc1cc(C(=O)C(=O)N2C3CCCC2C(=O)N(C2CCCC2)C3=O)cc(OC)c1OC
Reply: label 0

Task item: Same again, this time with COC1(C(=O)C(=O)N2C3CCCC2C(=O)N(CCCCc2ccccc2)C3)CCCC1 (centres unmarked)
Reply: label 1

---

- assay-system: UniProt:P62942
- assay-details: rotamase inhibition assay (N-succinyl-Ala-Ala-Pro-Phe-p-nitroanilide, chymotrypsin-coupled)
- Assay type: biochemical
- run-conditions: apparent Ki; NI = no inhibition at the concentrations tested; read-out: Rotamase Ki(app)
Quick reference for pKi among some molecules
Entry type: numeric. Quantity: pKi, the -log10 of concentration in molar units.

Would you please look over these solved cases?
{"columns": ["molecule", "assay-system", "pKi"],
 "data": [
  ["COC[C@@H]1CC[C@@H](C)[C@](O)(C(=O)C(=O)N2C3CCCC2C(=O)N(CCCCc2ccccc2)C3)C1 (stereo partly shown) [Compound 120]", "UniProt:P62942", 5.60],
  ["CCCC(CCC)C(=O)OC[C@H](CN1CC2CCCC(C1=O)N2C(=O)C(=O)c1cc(OC)c(OC)c(OC)c1)OCc1ccccc1 (stereo partly shown) [Compound 47]", "UniProt:P62942", 6.70],
  ["COCOCC1(C(=O)C(=O)N2C3CCCC2C2=CN(C4CCCC4)C(=O)CN2C3=O)CCCC1 (stereo not shown) [Compound 152]", "UniProt:P62942", 5.55],
  ["COCCOC1(C(=O)C(=O)N2C3CCCC2C(=O)N(CCCCc2ccccc2)C3)CCCC1 (stereo not shown) [Compound 98]", "UniProt:P62942", 6.11],
  ["C=CCC(CC=C)C(=O)OC[C@@H]1CC[C@H](N2CC3CCCC(C2=O)N3C(=O)C(=O)c2cc(OC)c(OC)c(OC)c2)C1 (stereo partly shown) [Compound 154]", "UniProt:P62942", 6.61]
]}

Task item: Need pKi, item COC(OC)C(=O)OC1(C(=O)C(=O)N2C3CCCC2C(=O)N(CCCCc2ccccc2)C3)CCCC1 (stereo not shown) [Compound 102]
Reply: 6.16

Task item: // query: C=CCC(CC=C)C(=O)OC[C@H](CN1CC2CCCC(C1=O)N2C(=O)C(=O)C1(COC(C)=O)CCCC1)OCc1ccccc1 (stereo partly shown) [Compound 111]
Reply: 6.18

Task item: Now the molecule COc1ccc2c(c1)C(OC)C1C3CCCC(C(=O)N1C2)N3C(=O)C(=O)c1cc(OC)c(OC)c(OC)c1 (stereo not shown) [Compound 74]
Reply: 6.95

Task item: Follow-up entry: COc1cc(C(=O)C(=O)N2C3CCCC2C(=O)N(C(COCc2ccccc2)COC(C)=O)C3)cc(OC)c1OC (stereo not shown) [Compound 53]
Reply: 5.30

Task item: CCC(C)(C)C(=O)C(=O)N1C2CCCC1C1c3cccc(OC)c3CCN1C2=O (stereo not shown) [Compound 87] ?
Reply: 5.30
